target: recombinant ICE (Homo sapiens, UniProt P29466); construct: made in house; host or cells: Sf9 insect cells, baculovirus vector; assay: Fluorometric enzyme assay, cleavage of substrate by recombinant ICE; format: biochemical; settings: 1-100 μM substrate, 37° C.
Sequence (P29466 120-297 limits assumed): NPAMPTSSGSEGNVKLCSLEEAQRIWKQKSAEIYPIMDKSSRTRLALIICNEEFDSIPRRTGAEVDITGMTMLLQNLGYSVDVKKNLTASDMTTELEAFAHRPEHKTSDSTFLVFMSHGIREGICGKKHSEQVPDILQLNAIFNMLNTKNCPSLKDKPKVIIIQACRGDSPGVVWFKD
Sequence (P29466 317-404 limits assumed): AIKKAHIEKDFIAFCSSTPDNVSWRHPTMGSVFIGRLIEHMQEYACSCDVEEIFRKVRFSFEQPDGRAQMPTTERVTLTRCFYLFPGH
Measurement type: ICE Vmax (nmol/min)

Compound	ICE Vmax [nmol/min]
CC(C)[C@H](NC(=O)[C@H](Cc1ccc(O)cc1)NC(=O)OCc1ccccc1)C(=O)N[C@@H](C)C(=O)N[C@@H](CC(=O)O)C(=O)Nc1ccc2c(c1)Oc1cc(NC(=O)[C@H](CC(=O)O)NC(=O)[C@H](C)NC(=O)[C@@H](NC(=O)[C@H](Cc3ccc(O)cc3)NC(=O)OCc3ccccc3)C(C)C)ccc1C21OC(=O)c2ccccc21 [(Z-YVAD)2-Rhodamine 110, (Z-Tyr-Val-Ala-Asp)2-Rhodamine 110]	14
CC(=O)Nc1ccc2c(c1)Oc1cc(NC(=O)[C@H](CC(=O)O)NC(=O)[C@@H](NC(=O)[C@H](CCC(=O)O)NC(=O)[C@H](CC(=O)O)NC(=O)OCc3ccccc3)C(C)C)ccc1C21OC(=O)c2ccccc21 (some centres unmarked) [N-(Z-DEVD)-N′-Ac-Rhodamine 110]	9
CC(C)[C@H](NC(=O)OCc1ccccc1)C(=O)N[C@@H](C)C(=O)N[C@@H](CC(=O)O)C(=O)Nc1ccc2c(c1)Oc1cc(NC(=O)[C@H](CC(=O)O)NC(=O)[C@H](C)NC(=O)[C@@H](NC(=O)OCc3ccccc3)C(C)C)ccc1C21OC(=O)c2ccccc21 [(Z-VAD)2-Rhodamine 110, (Z-Val-Ala-Asp)2-Rhodamine 110]	9

[A] CC(=O)Nc1ccc2c(c1)Oc1cc(NC(=O)[C@H](CC(=O)O)NC(=O)[C@H](C)NC(=O)[C@@H](NC(=O)[C@H](Cc3ccc(O)cc3)NC(=O)OCc3ccccc3)C(C)C)ccc1C21OC(=O)c2ccccc21 (some centres unmarked) [N-(Z-YVAD)-N′-Ac-Rhodamine 110]
[B] CC(=O)Nc1ccc2c(c1)Oc1cc(NC(=O)C(CC(=O)O)NC(=O)C(C)NC(=O)C(NC(=O)OCc3ccccc3)C(C)C)ccc1C21OC(=O)c2ccccc21 (centres unmarked) [N-(Z-VAD)-N′-Ac-Rhodamine 110]
Kindly identify the item with the lower ICE Vmax figure among these two: A and B // output: label of the selected item
B

====

assay: Fluorescence of modified Rhodamine dyes (spectrometry and spectrofluorometry); type: physicochemical; conditions: Test Conc. 1 μM, MeOH
Measurement type: Signal Amplitude

> print(dat)
                                   compound  result.number
1  CCCCCCCCOC(=O)Nc1ccc2c(c1)Oc1cc(N)ccc1C21OC(=O)c2ccccc21 (centres unmarked)            850
2  CCCCCCCCCCCCOC(=O)Nc1ccc2c(c1)Oc1cc(N)ccc1C21OC(=O)c2ccccc21 (centres unmarked)            640
3  CCCCCCCCCCOC(=O)Nc1ccc2c(c1)Oc1cc(N)ccc1C21OC(=O)c2ccccc21 (centres unmarked)            827
4  CCCCCCCCSC(=O)Nc1ccc2c(c1)Oc1cc(N)ccc1C21OC(=O)c2ccccc21 (centres unmarked)            471
5  CCCCCCSC(=O)Nc1ccc2c(c1)Oc1cc(N)ccc1C21OC(=O)c2ccccc21 (centres unmarked)            650
